molecular target: KDR (phospho-KDR, VEGF165-stimulated HUVEC cells) (Homo sapiens (Human), UniProt P35968); experiment: KDR autophosphorylation ELISA in HUVEC cells (Example G); format: cell-based; conditions: cellular activity; KDR autophosphorylation ELISA in HUVEC cells
Sequence (P35968 20-1356): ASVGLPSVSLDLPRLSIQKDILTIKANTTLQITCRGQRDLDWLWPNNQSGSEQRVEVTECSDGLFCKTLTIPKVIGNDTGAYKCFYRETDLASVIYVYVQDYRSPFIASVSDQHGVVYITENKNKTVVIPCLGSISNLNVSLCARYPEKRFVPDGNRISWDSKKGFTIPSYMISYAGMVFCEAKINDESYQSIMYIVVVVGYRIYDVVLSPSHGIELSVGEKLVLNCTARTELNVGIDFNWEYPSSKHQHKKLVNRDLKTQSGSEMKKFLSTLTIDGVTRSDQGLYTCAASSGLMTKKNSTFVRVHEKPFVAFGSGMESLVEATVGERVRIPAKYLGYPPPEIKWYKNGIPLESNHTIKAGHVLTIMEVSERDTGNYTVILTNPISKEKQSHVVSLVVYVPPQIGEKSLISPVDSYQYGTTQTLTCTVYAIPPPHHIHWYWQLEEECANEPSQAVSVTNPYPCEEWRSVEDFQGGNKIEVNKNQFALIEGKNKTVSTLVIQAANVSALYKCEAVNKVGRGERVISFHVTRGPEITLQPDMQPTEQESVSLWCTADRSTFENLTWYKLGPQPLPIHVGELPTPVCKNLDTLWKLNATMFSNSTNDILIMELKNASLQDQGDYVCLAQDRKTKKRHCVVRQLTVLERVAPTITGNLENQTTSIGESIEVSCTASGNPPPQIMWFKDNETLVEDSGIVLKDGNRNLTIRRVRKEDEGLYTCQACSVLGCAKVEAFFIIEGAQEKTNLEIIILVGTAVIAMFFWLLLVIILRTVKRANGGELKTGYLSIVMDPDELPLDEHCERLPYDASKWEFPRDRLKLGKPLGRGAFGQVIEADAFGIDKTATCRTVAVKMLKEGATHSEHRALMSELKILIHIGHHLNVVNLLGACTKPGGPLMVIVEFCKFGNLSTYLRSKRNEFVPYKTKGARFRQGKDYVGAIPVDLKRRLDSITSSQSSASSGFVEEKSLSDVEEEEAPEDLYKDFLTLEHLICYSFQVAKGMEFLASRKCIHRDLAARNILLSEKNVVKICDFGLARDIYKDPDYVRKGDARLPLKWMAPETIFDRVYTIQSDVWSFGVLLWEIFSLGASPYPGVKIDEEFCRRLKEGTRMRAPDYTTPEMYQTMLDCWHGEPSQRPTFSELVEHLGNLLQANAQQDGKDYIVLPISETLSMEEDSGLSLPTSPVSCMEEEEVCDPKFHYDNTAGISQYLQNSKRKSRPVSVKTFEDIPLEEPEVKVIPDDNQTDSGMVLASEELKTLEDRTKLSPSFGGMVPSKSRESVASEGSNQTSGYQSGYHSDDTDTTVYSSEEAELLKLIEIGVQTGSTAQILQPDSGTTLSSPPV

>  <molecule>
COc1nc2c(Oc3ccc(NC(=O)c4cn(C(C)C)cc(-c5ccc(F)cc5)c4=O)cc3F)ccnc2cc1Br [Compound 131]

>  <IC50>
> 0.3 µM

$$$$
>  <molecule>
COc1cc2nccc(Oc3ccc(NC(=O)c4cn(CCO)c(C)c(-c5ccc(F)cc5)c4=O)cc3F)c2nc1OC [Compound 619]

>  <IC50>
< 0.1 µM

$$$$
>  <molecule>
COc1cnc2c(Oc3ccc(NC(=O)c4c(C)ncn(-c5ccc(F)cc5)c4=O)cc3F)ccnc2c1 [Compound 256]

>  <IC50>
> 0.3 µM

$$$$

---

Parameter pIC50: see the listing below.
target: KDR (phospho-KDR, VEGF165-stimulated HUVEC cells) (Homo sapiens (Human)); assay: KDR autophosphorylation ELISA in HUVEC cells (Example G); type: cell-based; details: cellular activity; KDR autophosphorylation ELISA in HUVEC cells
pIC50: −log10 of the molar value.

>  <structure notation>
COc1cnc2c(Oc3ccc(NC(=O)c4cccn(-c5ccc(F)cc5)c4=O)cc3F)ccnc2c1

>  <target desc>
KDR (phospho-KDR, VEGF165-stimulated HUVEC cells) (Homo sapiens (Human))

>  <pIC50>
> 7.00

$$$$
>  <structure notation>
COc1cc2nccc(Oc3ccc(NC(=O)c4cn(C(C)C)cc(-c5ccc(F)cc5)c4=O)cc3)c2nc1OC

>  <target desc>
KDR (phospho-KDR, VEGF165-stimulated HUVEC cells) (Homo sapiens (Human))

>  <pIC50>
6.52 to 7.00

$$$$
>  <structure notation>
COc1cc2nccc(Oc3ccc(NC(=O)c4cnc(SC(C)C)n(-c5ccc(F)cc5)c4=O)cc3)c2cc1OC

>  <target desc>
KDR (phospho-KDR, VEGF165-stimulated HUVEC cells) (Homo sapiens (Human))

>  <pIC50>
< 6.52

$$$$
>  <structure notation>
CCOc1nc2c(Oc3ccc(NC(=O)c4c(C)nc(C)c(-c5ccc(F)cc5C)c4O)cc3)ccnc2cc1OC

>  <target desc>
KDR (phospho-KDR, VEGF165-stimulated HUVEC cells) (Homo sapiens (Human))

>  <pIC50>
> 7.00

$$$$
>  <structure notation>
COc1cc2nccc(Oc3ccc(NC(=O)c4cncc(-c5ccc(F)cc5)c4O)cc3F)c2nc1OC

>  <target desc>
KDR (phospho-KDR, VEGF165-stimulated HUVEC cells) (Homo sapiens (Human))

>  <pIC50>
> 7.00

$$$$
>  <structure notation>
COc1cc2nccc(Oc3ccc(NC(=O)c4c(C)cc(C)n(-c5ccc(F)cc5)c4=O)cc3)c2nc1OC

>  <target desc>
KDR (phospho-KDR, VEGF165-stimulated HUVEC cells) (Homo sapiens (Human))

>  <pIC50>
> 7.00

$$$$
>  <structure notation>
COc1cc2nccc(Oc3ccc(NC(=O)c4cnc(C)c(-c5ccc(F)cc5)c4O)cc3F)c2nc1OCCCN1CCOCC1

>  <target desc>
KDR (phospho-KDR, VEGF165-stimulated HUVEC cells) (Homo sapiens (Human))

>  <pIC50>
> 7.00

$$$$
>  <structure notation>
COCc1nc(C)c(-c2ccc(F)cc2C)c(O)c1C(=O)Nc1ccc(Oc2ccnc3cc(OC)cnc23)c(F)c1

>  <target desc>
KDR (phospho-KDR, VEGF165-stimulated HUVEC cells) (Homo sapiens (Human))

>  <pIC50>
> 7.00

$$$$
>  <structure notation>
COc1cc2nccc(Oc3ccc(NC(=O)c4c(OC)c(C(C)=O)cn(-c5ccc(F)cc5)c4=O)cc3F)c2nc1OC

>  <target desc>
KDR (phospho-KDR, VEGF165-stimulated HUVEC cells) (Homo sapiens (Human))

>  <pIC50>
< 6.52

$$$$
>  <structure notation>
CCc1cc2nccc(Oc3ccc(NC(=O)c4cnc(C)c(-c5ccc(F)cc5C)c4O)cc3F)c2nc1OC

>  <target desc>
KDR (phospho-KDR, VEGF165-stimulated HUVEC cells) (Homo sapiens (Human))

>  <pIC50>
> 7.00

$$$$
>  <structure notation>
C=Cc1cc2nccc(Oc3ccc(NC(=O)c4cnc(C)c(-c5ccc(F)cc5)c4O)cc3F)c2nc1OC

>  <target desc>
KDR (phospho-KDR, VEGF165-stimulated HUVEC cells) (Homo sapiens (Human))

>  <pIC50>
> 7.00

$$$$
>  <structure notation>
COc1cc2nccc(Oc3ccc(NC(=O)c4cn(-c5ccn(C)n5)cc(-c5ccc(F)cc5)c4=O)cc3F)c2nc1OC

>  <target desc>
KDR (phospho-KDR, VEGF165-stimulated HUVEC cells) (Homo sapiens (Human))

>  <pIC50>
< 6.52

$$$$
>  <structure notation>
COc1cc2nccc(Oc3cc(F)c(NC(=O)c4cn(C)c(C)c(-c5ccc(F)cc5)c4=O)cc3C)c2nc1OC

>  <target desc>
KDR (phospho-KDR, VEGF165-stimulated HUVEC cells) (Homo sapiens (Human))

>  <pIC50>
< 6.52

$$$$
>  <structure notation>
C=Cc1c(C)c(C(=O)Nc2ccc(Oc3ccnc4cc(OCCOC)c(OC)nc34)cc2)c(=O)n(-c2ccc(F)cc2)c1C

>  <target desc>
KDR (phospho-KDR, VEGF165-stimulated HUVEC cells) (Homo sapiens (Human))

>  <pIC50>
6.52 to 7.00

$$$$

# credit: patent US12371428B2
